# credit: patent US20210206841A1

SYSTEM_NAME: T1, native IHFNTHI (integration host factor of nontypeable Haemophilus influenzae) (nontypeable Haemophilus influenzae …, UniProt P43723 1-96; P43724 1-94)
T1 construct: also called NTHI IHF
T1 sequence 1: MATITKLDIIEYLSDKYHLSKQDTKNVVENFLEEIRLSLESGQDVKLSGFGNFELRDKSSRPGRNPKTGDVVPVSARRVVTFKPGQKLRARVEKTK
T1 sequence 2: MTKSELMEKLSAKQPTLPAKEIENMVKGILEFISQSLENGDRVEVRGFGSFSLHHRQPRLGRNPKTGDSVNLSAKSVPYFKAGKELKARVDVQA
TEST_DESCRIPTION: SPR Biacore 3000, HuMab immobilized, IHFNTHI as analyte
pKd listing for selected binders.
As a rule, pKd stands for the negative log10 of the concentration, concentration in M.

Query :: Endpoint output: pKd of humanized anti-tip monoclonal antibody, heavy chain SEQ ID NO: 2 and light chain SEQ ID NO: 7 (antibody, V domains shown, also called H10211 (1F8.F1 Humanized HC2) + L10210 (1F8.F1 Humanized LC1)) VH: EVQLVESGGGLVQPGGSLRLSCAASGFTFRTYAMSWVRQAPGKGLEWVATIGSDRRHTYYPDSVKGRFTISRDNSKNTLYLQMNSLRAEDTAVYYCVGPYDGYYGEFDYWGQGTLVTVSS VL: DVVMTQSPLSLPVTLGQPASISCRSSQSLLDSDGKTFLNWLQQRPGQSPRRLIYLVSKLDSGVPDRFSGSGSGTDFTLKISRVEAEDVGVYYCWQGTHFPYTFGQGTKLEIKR . Value?
Result :: 9.22

Query :: Endpoint output: pKd of humanized anti-tip monoclonal antibody, heavy chain SEQ ID NO: 3 and light chain SEQ ID NO: 9 (antibody, V domains shown, also called H10212 (1F8.F1 Humanized HC3) + L10212 (1F8.F1 Humanized LC3)) VH: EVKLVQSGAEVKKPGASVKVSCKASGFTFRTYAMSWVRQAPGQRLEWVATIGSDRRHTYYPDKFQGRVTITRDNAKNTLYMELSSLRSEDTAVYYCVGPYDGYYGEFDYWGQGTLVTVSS VL: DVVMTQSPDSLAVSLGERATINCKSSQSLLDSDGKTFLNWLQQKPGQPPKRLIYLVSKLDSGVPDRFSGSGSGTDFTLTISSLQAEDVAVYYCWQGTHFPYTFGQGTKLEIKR . Value?
Result :: 5.80

Query :: Endpoint output: pKd of humanized anti-tip monoclonal antibody, heavy chain SEQ ID NO: 1 and light chain SEQ ID NO: 8 (antibody, V domains shown, also called H10210 (1F8.F1 Humanized HC1) + L10211 (1F8.F1 Humanized LC2)) VH: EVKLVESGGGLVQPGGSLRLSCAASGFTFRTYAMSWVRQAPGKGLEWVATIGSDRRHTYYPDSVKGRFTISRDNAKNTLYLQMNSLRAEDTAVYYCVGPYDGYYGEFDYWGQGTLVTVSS VL: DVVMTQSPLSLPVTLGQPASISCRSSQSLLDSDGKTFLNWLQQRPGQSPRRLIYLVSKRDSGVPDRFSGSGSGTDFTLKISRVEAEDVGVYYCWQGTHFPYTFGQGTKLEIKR . Value?
Result :: 9.70
